Source listed as PubChem BioAssay.

assay: galactose survival enhancers in mitochondrial complex I cybrids – cell-based, galactose medium, ATP luminescence, primary screen (AID 1645843); settings: complex I mutant cybrid cells, 72 h;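 further: positive z means more ATP and so rescue of galactose-driven cybrid death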
Active and inactive are the calls of the source.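 How the source made its calls: active means z-score of at least 1.8 in each of two replicates, scored against plate mean and spread of sample wells; inactive means the rest.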
Possible outcomes: active, inactive

INSERT INTO measurements (molecule, assigned_category) VALUES
  ('CCCn1c(=O)c2c(ncn2C)n(CCC)c1=O', 'inactive'),
  ('CCCn1nc(NC(=O)Cn2ccc(-c3ccc(F)cc3)n2)c2ccccc21', 'inactive'),
  ('COc1cccc2ccc(-c3ccc(C(C)=O)cc3)nc12', 'active'),
  ('O=C(O)CNC(=O)c1cccc(O)c1', 'inactive'),
  ('CC(C)CCC(=O)N(C)CCCC1CCCC1', 'inactive'),
  ('CC#C[C@]1(O)CCC2C3CCC4=CC(=O)CCC4=C3C(c3ccc(N(C)C)cc3)C[C@@]21C (some centres undefined)', 'inactive'),
  ('Cc1nn(C)cc1-c1ccnc(NC(CC(C)(C)C)c2cccnc2)n1 (centres undefined)', 'inactive'),
  ('CC(C)C[C@H](NC(=O)[C@@H](Cc1c[nH]c2ccccc12)NC(=O)[C@H](Cc1ccc(O)cc1)NC(=O)[C@H](CO)NC(=O)[C@H](Cc1c[nH]c2ccccc12)NC(=O)[C@H](Cc1cnc[nH]1)NC(=O)[C@@H]1CCC(=O)N1)C(=O)N[C@@H](CCCN=C(N)N)C(=O)N1CCC[C@H]1C(=O)NCC(N)=O', 'inactive'),
  ('O=C(O)c1ccc(-c2ccccc2C(F)(F)F)o1', 'inactive');

---

test: viability loss with induced miR-34 in A549 – imaging, A549 dox-inducible miR-34, nuclei and caspase counts, primary screen (AID 1347080); settings: A549 miR-34 inducible, Hoechst nuclei count, 48 h; stronger effect = lower value; cell number ratio, induced over uninduced
Measured fold change, listed per entry.
MEASURED_ATTRIBUTE: fold change

INSERT INTO measurements (compound, measured_attribute, endpoint_result) VALUES
  ('Cc1ncsc1-c1ccn(CC(=O)Nc2ccnn2Cc2cccs2)n1', 'fold change', 0.798),
  ('CC(C)(C)n1nc(Cc2cccc3ccccc23)c2c(N)ncnc21', 'fold change', 1.05),
  ('COc1ccnc2[nH]cc(C(=O)C(=O)N3CCN(C(=O)c4ccccc4)CC3C)c12 (stereo not drawn)', 'fold change', 0.955),
  ('CCNC(=O)c1cccnc1N1CCN(c2ccc(Cl)cc2)CC1', 'fold change', 0.873),
  ('CC[C@H]1OC(=O)[C@H](C)[C@@H](OC2C[C@@](C)(OC)[C@@H](O)[C@H](C)O2)[C@H](C)[C@@H](O[C@@H]2O[C@H](C)C[C@H](N(C)C)[C@H]2O)[C@](C)(O)C[C@@H](C)/C(=N\OCOCCOC)[C@H](C)[C@@H](O)[C@]1(C)O (stereo partly drawn)', 'fold change', 0.893),
  ('CC1(C)CCC=[N+]1[O-]', 'fold change', 0.955),
  ('CCC(C)[C@H]1O[C@]2(CCC1C)CC1C[C@@H](CC=C(C)C(O[C@H]3CC(OC)C(O[C@H]4CC(OC)C(O)C(C)O4)C(C)O3)C(C)C=CC=C3CO[C@@H]4C(O)C(C)=C[C@H](C(=O)O1)[C@]34O)O2 (stereo partly drawn)', 'fold change', 1.18),
  ('C[C@]12C[C@@]3(O)O[C@@H](O1)[C@]1(COC(=O)c4ccccc4)[C@H]3C[C@@]12OC1OC(CO)C(O)C(O)C1O (stereo partly drawn)', 'fold change', 0.87),
  ('CCn1c(N)c(C(=O)NC)c(=O)c2ccc(C#C[C@@](C)(O)COC)nc21', 'fold change', 0.913),
  ('CCOC1O[C@H]([C@@H](COCc2ccccc2)OCc2ccccc2)[C@H](OCc2ccccc2)[C@H]1O (stereo partly drawn)', 'fold change', 0.904),
  ('CCC(C)C(=O)OC1CC(O)C=C2C=CC(C)C(CCC(O)CC(O)CC(=O)O)C21 (stereo not drawn)', 'fold change', 0.961),
  ('Cc1ccccc1CN1C2=NCCN2C(=O)C2=C1CCN(Cc1ccccc1)C2', 'fold change', 0.955),
  ('O=C(O)C1CCNCC1', 'fold change', 1.1),
  ('NC(=O)N1CCC(CC(=O)N2CCC(C3c4ncc(Br)cc4CCc4cc(Cl)cc(Br)c43)CC2)CC1 (stereo not drawn)', 'fold change', 1.04),
  ('Oc1ccccc1O', 'fold change', 1.03),
  ('CN(C)CCOc1ccc(-c2nc(-c3ccc4c(c3)CCC4=NO)c(-c3ccncc3)[nH]2)cc1', 'fold change', 0.921),
  ('O=C(O)C(O)C(O)C(O)C(O)C(=O)O (stereo not drawn) (tested in a mixture with another compound)', 'fold change', 0.895),
  ('O=C(NCc1ccccn1)c1ccc(Oc2ccccc2)cc1', 'fold change', 0.933);

---

experiment: growth inhibition, single agents and combos, ICB984, cell-based, cisplatin or BGB combos, synergistic combos for chromothripsis tumors (AID 1671451); details: ICB984 medulloblastoma cells, drug combinations, cisplatin combo, at 0.05 µM, stronger effect = higher value;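 further: cells exposed for 96 hours before readout; 0% = vehicle DMSO and 100% = killing by high DMSO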
Classification field. Basis: inhibition. Definitions: lower band: < -30%; central band: ≥ -30% and < 50%; upper band: ≥ 50%

INSERT INTO results (molecule, assigned_category) VALUES
  ('Cc1c(Br)cc(NCC(=O)N/N=C/c2cc([N+](=O)[O-])ccc2O)cc1Br', 'central band'),
  ('CCC(Sc1nnc2c3ccccc3n(CC)c2n1)C(=O)Nc1ccccc1OC (centres undefined)', 'lower band'),
  ('C[n+]1ccc(-c2c3nc(c(-c4cc[n+](C)cc4)c4ccc([nH]4)c(-c4cc[n+](C)cc4)c4nc(c(-c5cc[n+](C)cc5)c5ccc2[nH]5)C=C4)C=C3)cc1', 'lower band'),
  ('CN(C)C(=S)NN=C(c1ccccn1)c1ccccn1', 'upper band'),
  ('Cc1cc(C#N)cc(C)c1Oc1nc(Nc2ccc(C#N)cc2)nc(N)c1Br', 'central band'),
  ('COc1ccc(-c2nc(-c3cc(C(F)(F)F)cc(C(F)(F)F)c3)n(Cc3ccc(C(N)=O)cc3)c2-c2ccc(OC)cc2)cc1', 'lower band'),
  ('COc1nc(N)nc2c1ncn2[C@@H]1O[C@H](CO)[C@@H](O)[C@H]1O', 'central band'),
  ('C[C@@H]1COCCN1c1cc(C2(S(C)(=O)=O)CC2)nc(-c2cccc3[nH]ccc23)n1', 'central band'),
  ('O=C(CCCCCCC(=O)Nc1ccc(I)cc1)NO', 'upper band');

---

test: RCMB18 cell growth, single agent and combined, cisplatin and BGB IC40 combos (AID 1671462); details: RCMB18 medulloblastoma cells, at 0.5 µM, stronger effect = higher value;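 further: cells exposed to compound for four days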
MEASURED_ATTRIBUTE: inhibition (%)

INSERT INTO assay_data (compound, measured_attribute, endpoint_result) VALUES
  ('C[C@H](NC(=O)c1ccccc1N=Cc1c(O)ccc2ccccc12)c1ccccc1', 'inhibition', -3.35),
  ('C=C(NC(=O)C(=C)NC(=O)c1csc(C2=NC3c4csc(n4)C4NC(=O)c5csc(n5)C(C(C)(O)C(C)O)NC(=O)C5CSC(=N5)/C(=C/C)NC(=O)C(C(C)O)NC(=O)c5csc(n5)C3(CC2)NC(=O)C(C)NC(=O)C(=C)NC(=O)C(C)NC(=O)C(C(C)CC)NC2C=Cc3c(C(C)O)cc(nc3C2O)C(=O)OC4C)n1)C(N)=O (stereo unspecified)', 'inhibition', -9.28),
  ('CC1CNC(=O)NC1=O (stereo unspecified)', 'inhibition', -12),
  ('Nc1ccn(C2CCC(CO)O2)c(=O)n1 (stereo unspecified)', 'inhibition', -1.7),
  ('O=C(CCCCCCC(=O)Nc1ccc(I)cc1)NO', 'inhibition', 20.3),
  ('C[n+]1ccc(-c2c3nc(c(-c4cc[n+](C)cc4)c4ccc([nH]4)c(-c4cc[n+](C)cc4)c4nc(c(-c5cc[n+](C)cc5)c5ccc2[nH]5)C=C4)C=C3)cc1', 'inhibition', -13.6),
  ('O=c1cc(-c2ccc(O)cc2)[nH]c(=S)[nH]1', 'inhibition', -1.5),
  ('NC(=O)c1ncn(C2OC(CO)C(O)C2O)c1O (stereo unspecified)', 'inhibition', -9.69),
  ('C=CC1=C(C)C2=CC3=NC(=C(CC(=O)O)C4=NC(=C(C)C4=C(O)O)C=c4[nH]c(c(C)c4CC)=CC1=N2)C(CCC(=O)O)C3C (stereo unspecified)', 'inhibition', -15.6),
  ('NC(=O)c1cccc2[nH]c(-c3ccc(C4CCCN4)cc3F)nc12 (stereo unspecified)', 'inhibition', -17.5),
  ('O=c1ccn(C2CC(O)C(CO)O2)c(=O)[nH]1 (stereo unspecified)', 'inhibition', -15.4),
  ('O=C(CCSc1nc2ccccc2c(=O)[nH]1)NC1CCC(c2nnc(-c3ccccc3)o2)CC1 (stereo unspecified)', 'inhibition', -4.49),
  ('Cc1cn(C2C=CC(CO)O2)c(=O)[nH]c1=O (stereo unspecified)', 'inhibition', -28.5),
  ('CC(C)(C#N)c1ccc(N2C(=O)OCc3cnc4ccc(-c5cnc6ccccc6c5)cc4c32)cc1', 'inhibition', -2.14),
  ('CCC(C)C(=O)OC1CC(C)C=C2C=CC(C)C(CCC3CC(O)CC(=O)O3)C21 (stereo unspecified)', 'inhibition', 1.38),
  ('COc1ccc(-c2nc(-c3cc(C(F)(F)F)cc(C(F)(F)F)c3)n(Cc3ccc(C(N)=O)cc3)c2-c2ccc(OC)cc2)cc1', 'inhibition', -23),
  ('Cc1ccc(NC(=O)CCCCCC(=O)Nc2ccccc2N)cc1', 'inhibition', 6.99),
  ('O=c1[nH]c(=S)[nH]c2nc(-c3ccccc3)c(-c3ccccc3)nc12', 'inhibition', -2.13),
  ('O=C1C(=Cc2cccnc2)C(=O)c2ccccc21', 'inhibition', -13.1),
  ('COc1nc(N)nc2c1ncn2[C@@H]1O[C@H](CO)[C@@H](O)[C@H]1O', 'inhibition', -13.9),
  ('O=c1[nH]c(=O)n(C2CC(O)C(CO)O2)cc1I (stereo unspecified)', 'inhibition', -5.93),
  ('O=C(CCCCCCC(=O)NO)NO', 'inhibition', -4.15),
  ('COc1cccc2c1C(=O)c1c(O)c3c(c(O)c1C2=O)CC(O)(C(C)=O)CC3OC1CC(N)C(O)C(C)O1 (stereo unspecified)', 'inhibition', 79),
  ('CC(=O)C1(O)Cc2c(O)c3c(c(O)c2C(OC2CC(N)C(O)C(C)O2)C1)C(=O)c1ccccc1C3=O (stereo unspecified)', 'inhibition', 75.2),
  ('CCC(Sc1nnc2c3ccccc3n(CC)c2n1)C(=O)Nc1ccccc1OC (stereo unspecified)', 'inhibition', -9.8),
  ('CC(Oc1cc(-c2cnn(C3CCNCC3)c2)cnc1N)c1c(Cl)ccc(F)c1Cl (stereo unspecified)', 'inhibition', 16.2),
  ('Cc1c(Br)cc(NCC(=O)N/N=C/c2cc([N+](=O)[O-])ccc2O)cc1Br', 'inhibition', -19),
  ('CC(C)c1ccc(-c2cc(=O)c3ccccc3o2)cc1', 'inhibition', -14),
  ('CC1OC(CC(=O)O)CC2=C1C(=O)c1c(O)cccc1C2=O (stereo unspecified)', 'inhibition', 99.3),
  ('C[C@@H]1COCCN1c1cc(C2(S(C)(=O)=O)CC2)nc(-c2cccc3[nH]ccc23)n1', 'inhibition', 25.2),
  ('CC(C)C(=O)SCCCCCCC(=O)Nc1nc(-c2ccccc2)cs1', 'inhibition', -9.74),
  ('Cc1cn(C2CC(O)C(COP(=O)(O)OP(=O)(O)OP(=O)(O)O)O2)c(=O)[nH]c1=O (stereo unspecified)', 'inhibition', -1.71),
  ('C=C1CCC(O)CC1=CC=C1CCCC2(C)C1CCC2C(C)C=CC(C)C(C)C (stereo unspecified)', 'inhibition', -6.63),
  ('CCC1(O)C(=O)OCc2c1cc1n(c2=O)Cc2cc3cc(O)ccc3nc2-1 (stereo unspecified)', 'inhibition', 24),
  ('CC1CN(c2c(F)c(N)c3c(=O)c(C(=O)O)cn(C4CC4)c3c2F)CC(C)N1 (stereo unspecified)', 'inhibition', -6.55),
  ('Nc1nc(NC2CC2)cc(-c2cccc(Cl)c2Cl)n1', 'inhibition', -8.4);
